Assay: n-Octanol-buffer partition coefficient, log D of the compound at pH 7.4 by HPLC method
Type: physicochemical
readout_name: logD

CCCN(C)C(=O)Cc1c(-c2ccc(CCCF)cc2)nn2c(C)cc(C)nc12: 3.65
Cc1cc(C)n2nc(-c3ccc(CCCF)cc3)c(CC(=O)N(C)Cc3ccccn3)c2n1: 3.16
CCN(CC)C(=O)Cc1c(-c2ccc(CCCF)cc2)nn2c(C)cc(C)nc12: 3.51
Cc1cc(C)n2nc(-c3ccc(CCCF)cc3)c(CC(=O)N(C)Cc3ccccc3)c2n1: 3.98
Cc1cc(C)n2nc(-c3ccc(CCCF)cc3)c(CC(=O)N3CCC3)c2n1: 2.73

P: Cc1cc(C)n2nc(-c3ccc(CCCF)cc3)c(CC(=O)N(C)Cc3cccnc3)c2n1
Q: Cc1cc(C)n2nc(-c3ccc(CCCF)cc3)c(CC(=O)N3CCNCC3)c2n1
R: CCCN(CCC)C(=O)Cc1c(-c2ccc(CCCF)cc2)nn2c(C)cc(C)nc12
Highest logD first, then in falling order down to the smallest. Put the labels in the order asked and list them.
R, P, Q
